# system: HLA-A*11:01
# protocol notes: IEDB peptide-MHC binding, purified MHC/direct/fluorescence; filed as Kd, often an IC50 or EC50 that approximates it; bounds were set here for any values at or beyond the usual limits of such assays
# condition parameters: source organism: SARS-CoV1
pKd: −log10 of the molar value.
measured quantity: pKd

{"columns": ["ordered residues", "lt gt eq", "numeric value"],
 "data": [
  ["TSNPKTPKY", "=", 4.85],
  ["TCDGNTFTY", "=", 5.61],
  ["TLVPQEHYV", "≤", 4.36],
  ["ASHFISNSW", "≤", 4.28]
]}

----------
# system: HLA-B*44:02
# protocol notes: IEDB peptide-MHC binding, purified MHC/direct/fluorescence; filed as Kd, often an IC50 or EC50 that approximates it; bounds were set here for any values at or beyond the usual limits of such assays
# condition parameters: source organism: West Nile virus

{"columns": ["ordered residues", "system", "Kd"],
 "data": [
  ["GRGPIRFVL", "HLA-B*44:02", "≥ 20 µM"]
]}

----------
Reported Kd by item:
# system: HLA-A*31:01
# protocol notes: IEDB peptide-MHC binding, purified MHC/direct/fluorescence; filed as Kd, often an IC50 or EC50 that approximates it; bounds were set here for any values at or beyond the usual limits of such assays
# condition parameters: source organism: Escherichia coli
measured quantity: Kd (nM)

{"columns": ["ordered residues", "lt gt eq", "numeric value"],
 "data": [
  ["RRNNRVFFR", "=", 17.7],
  ["LAAPCRNAL", "≥", 20000],
  ["ALMRWRHPR", "=", 5.44]
]}

----------
# system: HLA-B*07:02
# protocol notes: IEDB peptide-MHC binding, purified MHC/direct/fluorescence; filed as Kd, often an IC50 or EC50 that approximates it; bounds were set here for any values at or beyond the usual limits of such assays
# condition parameters: source organism: Aracatuba virus
measured quantity: Kd

{"columns": ["ordered residues", "measured quantity", "result"],
 "data": [
  ["LLLLISLVY", "Kd", "≥ 20 µM"]
]}

----------
# system: HLA-A*02:01
# protocol notes: IEDB peptide-MHC binding, purified MHC/direct/fluorescence; filed as Kd, often an IC50 or EC50 that approximates it; bounds were set here for any values at or beyond the usual limits of such assays
# condition parameters: source organism: Yersinia pestis
pKd: −log10 of the molar value.
The reader will find reported pKd values listed item by item below.

{"columns": ["ordered residues", "lt gt eq", "pKd"],
 "data": [
  ["YLHRDIFDI", "=", 7.44],
  ["FMSLQSGDV", "≤", 4.70],
  ["FLPPQIPVI", "=", 7.67]
]}

----------
# system: HLA-A*03:01
# protocol notes: IEDB peptide-MHC binding, purified MHC/direct/fluorescence; filed as Kd, often an IC50 or EC50 that approximates it; bounds were set here for any values at or beyond the usual limits of such assays
# condition parameters: source organism: Camelpox virus M-96
measured quantity: Kd (nM)

{"columns": ["ordered residues", "numeric value"],
 "data": [
  ["SLYKYLLLR", 31]
]}

----------
# system: HLA-B*40:01
# protocol notes: IEDB peptide-MHC binding, purified MHC/competitive/radioactivity; filed as Kd, often an IC50 or EC50 that approximates it; bounds were set here for any values at or beyond the usual limits of such assays
# condition parameters: source organism: Mammarenavirus lassaense

{"columns": ["ordered residues", "unit string", "lt gt eq", "Kd"],
 "data": [
  ["GEPKESTPM", "nM", "=", 1180],
  ["SEGNATPGGY", "nM", "≥", 64200]
]}

----------
# system: HLA-B*51:01
# protocol notes: IEDB peptide-MHC binding, purified MHC/competitive/radioactivity; filed as Kd, often an IC50 or EC50 that approximates it; bounds were set here for any values at or beyond the usual limits of such assays
# condition parameters: source organism: Triticum aestivum

{"columns": ["ordered residues", "lt gt eq", "Kd, µM"],
 "data": [
  ["QPQQLPQF", "≥", 87.3],
  ["QPFLQPQLPY", "=", 14.5],
  ["YPLGQGSF", "=", 1.14],
  ["NPQAQGSV", "=", 6.06]
]}

----------
# system: HLA-B*15:01
# protocol notes: IEDB peptide-MHC binding, purified MHC/competitive/fluorescence; filed as Kd, often an IC50 or EC50 that approximates it; bounds were set here for any values at or beyond the usual limits of such assays
# condition parameters: source organism: Pseudomonas aeruginosa UCBPP-PA14

{"columns": ["ordered residues", "Kd"],
 "data": [
  ["AVFDGCVVY", "0.11 µM"]
]}

----------
Known Kd of a selection of sequences
# system: HLA-B*15:17
# protocol notes: IEDB peptide-MHC binding, purified MHC/direct/fluorescence; filed as Kd, often an IC50 or EC50 that approximates it; bounds were set here for any values at or beyond the usual limits of such assays
# condition parameters: source organism: Giardia lamblia ATCC 50803
measured quantity: Kd (nM)

{"columns": ["ordered residues", "system", "unit string", "numeric value"],
 "data": [
  ["ITFHNQRDF", "HLA-B*15:17", "nM", 5.2],
  ["ISYTYNDNW", "HLA-B*15:17", "nM", 1.4]
]}

----------
# system: HLA-A*31:01
# protocol notes: IEDB peptide-MHC binding, purified MHC/direct/fluorescence; filed as Kd, often an IC50 or EC50 that approximates it; bounds were set here for any values at or beyond the usual limits of such assays
# condition parameters: source organism: Salmonella enterica subsp. enterica serovar Typhimurium

{"columns": ["ordered residues", "system", "unit string", "Kd"],
 "data": [
  ["GVNACQVGV", "HLA-A*31:01", "µM", 10.2]
]}

----------
# system: HLA-B*44:02
# protocol notes: IEDB peptide-MHC binding, purified MHC/direct/fluorescence; filed as Kd, often an IC50 or EC50 that approximates it; bounds were set here for any values at or beyond the usual limits of such assays
# condition parameters: source organism: Influenza A virus (A/chicken/Vietnam/5/2003(H5N1))
measured quantity: Kd

{"columns": ["ordered residues", "result"],
 "data": [
  ["QTYDWTLNR", "≥ 20 µM"]
]}

----------
# system: HLA-A*02:01
# protocol notes: IEDB peptide-MHC binding, purified MHC/competitive/fluorescence; filed as Kd, often an IC50 or EC50 that approximates it; bounds were set here for any values at or beyond the usual limits of such assays
# condition parameters: source organism: Cryptosporidium parvum Iowa II
pKd: −log10 of the molar value.

{"columns": ["ordered residues", "pKd"],
 "data": [
  ["RLKHIFLIF", "≤ 4.70"]
]}

----------
# system: HLA-A*24:02
# protocol notes: IEDB peptide-MHC binding, purified MHC/competitive/fluorescence; bounds were set here for any values at or beyond the usual limits of such assays
# condition parameters: source organism: Variola virus
pIC50: −log10 of the molar value.

{"columns": ["ordered residues", "pIC50"],
 "data": [
  ["MTATLEDDR", 4.83]
]}

----------
# system: HLA-A*26:01
# protocol notes: IEDB peptide-MHC binding, purified MHC/direct/fluorescence; filed as Kd, often an IC50 or EC50 that approximates it; bounds were set here for any values at or beyond the usual limits of such assays
# condition parameters: source organism: Salmonella enterica subsp. enterica serovar Typhimurium
pKd: −log10 of the molar value.

{"columns": ["ordered residues", "system", "pKd"],
 "data": [
  ["WPVMQWLTA", "HLA-A*26:01", "≤ 4.70"]
]}

----------
# system: HLA-B*40:02
# protocol notes: IEDB peptide-MHC binding, purified MHC/competitive/radioactivity; filed as Kd, often an IC50 or EC50 that approximates it; bounds were set here for any values at or beyond the usual limits of such assays
# condition parameters: source organism: Mammarenavirus juninense
pKd: −log10 of the molar value.
measured quantity: pKd

{"columns": ["ordered residues", "numeric value"],
 "data": [
  ["MDYLILKNL", 7.73]
]}

----------
# system: HLA-B*46:01
# protocol notes: IEDB peptide-MHC binding, purified MHC/direct/fluorescence; filed as Kd, often an IC50 or EC50 that approximates it; bounds were set here for any values at or beyond the usual limits of such assays
# condition parameters: source organism: Aracatuba virus
pKd: −log10 of the molar value.

{"columns": ["ordered residues", "pKd"],
 "data": [
  ["LLLLISLVY", "≤ 4.70"]
]}

----------
# system: HLA-C*14:02
# protocol notes: IEDB peptide-MHC binding, purified MHC/direct/fluorescence; filed as Kd, often an IC50 or EC50 that approximates it; bounds were set here for any values at or beyond the usual limits of such assays
# condition parameters: source organism: Cryptosporidium parvum Iowa II
pKd: −log10 of the molar value.

{"columns": ["ordered residues", "pKd"],
 "data": [
  ["KAFPLIQNM", 6.43]
]}
